# Tested on: ATP;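 note: ATP exposure 15 min at 22 °C before imaging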
# test-method-notes: switch fluorescence ratio, 500 uM ATP over buffer (Cy3 cluster intensity, sum of 5 cycles each) (fold (ratio)); higher = stronger signal-on switching upon ATP binding; sequences stand for … in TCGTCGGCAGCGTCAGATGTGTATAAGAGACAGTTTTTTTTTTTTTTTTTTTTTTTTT…TC
# run-parameters: aptamer strand: ATP DNA aptamer (quencher-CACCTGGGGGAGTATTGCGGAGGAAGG + anchor), 100 nM annealed; ATP concentration: 500 uM
Reported switch fluorescence ratio is given for each of the following sequences.

input: Reported switch fluorescence ratio, sequence TGGGACATGC : ____
output: 0.987

input: Reported switch fluorescence ratio, sequence ATCGAGTTAG : ____
output: 0.978

input: Reported switch fluorescence ratio, sequence ACCAAAGAGA : ____
output: 0.993

input: Reported switch fluorescence ratio, sequence TTTTCGGTCT : ____
output: 0.994

input: Reported switch fluorescence ratio, sequence GAATTGGATG : ____
output: 0.965

Others:
input: Reported switch fluorescence ratio, sequence ACGAGAGGGG : ____
output: 0.996

input: Reported switch fluorescence ratio, sequence GCGCGGTGGC : ____
output: 1.09

input: Reported switch fluorescence ratio, sequence AACCTCTTAG : ____
output: 0.992
